meta.source: paper PMC5358875

system under test: T1, human tankyrase 2 ankyrin repeat cluster 4 (TNKS2 ARC4, residues 488-649) (human, UniProt Q9H2K2 488-649)
T1 sequence (looked up): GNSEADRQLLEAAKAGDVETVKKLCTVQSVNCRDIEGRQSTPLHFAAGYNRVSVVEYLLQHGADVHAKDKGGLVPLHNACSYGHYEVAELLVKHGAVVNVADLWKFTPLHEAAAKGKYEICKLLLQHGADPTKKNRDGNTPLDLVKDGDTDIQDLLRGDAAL
procedure summary: ITC; TNKS2 ARC4 (160-280 uM) or TNKS1 ARC2-3 (60-150 uM) titrated into the cell with unlabeled peptide (5-15 uM) or Axin1 fragment (8-12 uM); PBS, 0.5 mM TCEP; 25 C; one-site model; stoichiometry = TNKS per peptide or Axin1
experimental setup: both partners purified
Bridge positions count the residues as written; N and C are the ends. Square brackets hold non-standard residues; d marks the D form. Aha = [N-]=[N+]=NCC[C@H](N)C(=O)O; m3 = not defined here
Below is a list of entries, each paired with its recorded stoichiometry N value.
Note: the reply should be a number with no unit written.

# example entries with known answers
| binder | result number |
| --- | --- |
| Ac-RE[Aha]GDG[Aha]E-NH2 (triazole 3-7 via m3; reading uncertain) [cp4n2m3 (unlabeled)] | 0.9 |
| Ac-REAGDGEE-NH2 [pep1 (unlabeled linear consensus peptide Ac-REAGDGEE)] | 1 |

Identify measured stoichiometry N corresponding to Ac-RE[Aha]GDG[Aha]E-NH2 (bridge 3-7; not fully specified (bridges)) [cp4n2m3c (unlabeled)]
1.1

Fill in stoichiometry N for record human Axin1 residues 1-80 (domain or fragment, UniProt O15169 1-80, looked up) MNIQEQGFPLDLGASFTEDAPRPPVPGEEGELVSTDPRPASYSFCSGKGVGIKGETSTATPRRSDLDLGYEPEGSASPTP
1

Give a short answer stating reported stoichiometry N for MNIQEQGFPLDLGASFTEDAPRPPVPGEEGELVSTDPRPASYS (domain or fragment, UniProt O15169 1-43, looked up) [human Axin1 residues 1-43] .
1
